Notes on IC50 obtained with UniProt:P11151.
Sequence (P11151 whole entry, looked up): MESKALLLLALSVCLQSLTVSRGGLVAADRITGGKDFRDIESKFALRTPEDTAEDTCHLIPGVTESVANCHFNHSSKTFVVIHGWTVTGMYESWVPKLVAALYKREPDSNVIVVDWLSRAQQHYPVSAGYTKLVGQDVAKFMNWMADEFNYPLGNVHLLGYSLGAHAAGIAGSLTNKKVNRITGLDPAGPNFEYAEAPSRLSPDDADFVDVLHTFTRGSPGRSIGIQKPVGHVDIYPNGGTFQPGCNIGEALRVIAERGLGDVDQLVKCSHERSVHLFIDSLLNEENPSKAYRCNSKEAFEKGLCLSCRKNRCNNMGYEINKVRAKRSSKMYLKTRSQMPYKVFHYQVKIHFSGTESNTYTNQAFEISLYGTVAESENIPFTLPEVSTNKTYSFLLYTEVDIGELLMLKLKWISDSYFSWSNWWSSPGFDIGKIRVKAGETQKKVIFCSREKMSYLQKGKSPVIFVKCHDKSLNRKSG

Below, 4 molecules whose answers are already recorded.
[[record]]
smiles_representation = "CCOc1nn(-c2cccc(OCc3ccccc3)c2)c(=O)o1"
reported_endpoint = "IC50"
experimental_result = "> 10 µM"

[[record]]
smiles_representation = "Cc1c(C(C)C)c(=O)on1C(=O)N1CCC[C@H](C)C1"
reported_endpoint = "IC50"
experimental_result = "> 50 µM"

[[record]]
smiles_representation = "CN(C(=O)n1nc(-c2ccc(Cl)cc2)nc1SCC(F)(F)F)c1ccccc1"
reported_endpoint = "IC50"
experimental_result = "> 50 µM"

[[record]]
smiles_representation = "COc1nn(-c2ccc(NC(=O)c3ccc(C(C)(C)C)cc3)cc2)c(=O)o1"
reported_endpoint = "IC50"
experimental_result = "0.2 µM"


Turning now to a further record.
IC50 lookup needed for `CSc1nc(-c2ccc(OC(F)(F)F)cc2)nn1C(=O)N(C)c1ccccc1` , thanks.
> 50 µM

###

target-of-assay: Acetylcholinesterase (Homo sapiens)
Sequence (P22303 whole entry): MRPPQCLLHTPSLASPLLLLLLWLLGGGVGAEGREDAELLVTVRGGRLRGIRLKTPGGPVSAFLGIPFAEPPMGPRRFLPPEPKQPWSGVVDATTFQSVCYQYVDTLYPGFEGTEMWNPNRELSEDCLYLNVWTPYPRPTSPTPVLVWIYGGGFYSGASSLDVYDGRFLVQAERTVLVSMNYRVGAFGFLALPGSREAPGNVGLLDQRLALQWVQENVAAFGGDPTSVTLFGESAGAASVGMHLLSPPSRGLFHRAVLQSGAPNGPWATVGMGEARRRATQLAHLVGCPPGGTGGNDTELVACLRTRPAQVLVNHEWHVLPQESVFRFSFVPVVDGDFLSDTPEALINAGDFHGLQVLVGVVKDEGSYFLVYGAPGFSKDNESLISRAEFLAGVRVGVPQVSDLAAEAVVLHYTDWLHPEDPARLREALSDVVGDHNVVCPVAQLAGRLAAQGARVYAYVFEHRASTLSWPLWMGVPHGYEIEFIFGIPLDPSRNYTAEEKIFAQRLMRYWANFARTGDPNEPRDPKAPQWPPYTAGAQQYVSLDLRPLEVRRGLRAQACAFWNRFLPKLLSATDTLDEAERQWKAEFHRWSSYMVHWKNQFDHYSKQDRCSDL
test-protocol: Inhibitory concentration against acetylcholinesterase
pIC50: −log10 of the molar value.
reported-endpoint: pIC50

Below, 5 molecules whose answers are already recorded.
[[record]]
smiles_representation = "CCCCCCSc1nc(-c2ccc(Cl)cc2)nn1C(=O)N1CCOCC1"
experimental_result = "< 4.30"

[[record]]
smiles_representation = "COc1nn(-c2ccc(NC(=O)c3ccc(C(C)(C)C)cc3)cc2)c(=O)o1"
experimental_result = "< 4.30"

[[record]]
smiles_representation = "CCCCCCSc1nc(-c2ccc(C)cc2)nn1C(=O)N(C)c1ccccc1"
experimental_result = "< 4.30"

[[record]]
smiles_representation = "CSc1nc(-c2ccc(C)cc2)nn1C(=O)N1CCOCC1"
experimental_result = "< 4.30"

[[record]]
smiles_representation = "O=C(N1CCOCC1)n1nc(-c2ccc(Cl)cc2)nc1SCC(F)(F)F"
experimental_result = "< 4.30"


pIC50 lookup needed for `CCCCCCSc1nc(-c2ccc(Cl)cc2)nn1C(=O)N1CCCCC1` , thanks.
> 8.00

One more molecule: `CN(C(=O)n1nc(-c2ccc(Cl)cc2)nc1SCC(F)(F)F)c1ccccc1`
< 4.30

One more molecule: `CSc1nc(/C=C/c2ccccc2)nn1C(=O)N(C)C`
> 8.00

One more molecule: `CSc1nc(-c2ccc(OC(F)(F)F)cc2)nn1C(=O)N(C)c1ccccc1`
< 4.30

One more molecule: `CSc1nc(-c2ccc(Cl)cc2)nn1C(=O)N1CCOCC1`
< 4.30

One more molecule: `CCCCCCSc1nc(-c2ccc(Cl)cc2)nn1C(=O)N(C)c1ccccc1`
< 4.30

One more molecule: `CCSc1nc(-c2ccc(OC)cc2)nn1C(=O)N1CCOCC1`
< 4.30

###

Protein target, amino acids: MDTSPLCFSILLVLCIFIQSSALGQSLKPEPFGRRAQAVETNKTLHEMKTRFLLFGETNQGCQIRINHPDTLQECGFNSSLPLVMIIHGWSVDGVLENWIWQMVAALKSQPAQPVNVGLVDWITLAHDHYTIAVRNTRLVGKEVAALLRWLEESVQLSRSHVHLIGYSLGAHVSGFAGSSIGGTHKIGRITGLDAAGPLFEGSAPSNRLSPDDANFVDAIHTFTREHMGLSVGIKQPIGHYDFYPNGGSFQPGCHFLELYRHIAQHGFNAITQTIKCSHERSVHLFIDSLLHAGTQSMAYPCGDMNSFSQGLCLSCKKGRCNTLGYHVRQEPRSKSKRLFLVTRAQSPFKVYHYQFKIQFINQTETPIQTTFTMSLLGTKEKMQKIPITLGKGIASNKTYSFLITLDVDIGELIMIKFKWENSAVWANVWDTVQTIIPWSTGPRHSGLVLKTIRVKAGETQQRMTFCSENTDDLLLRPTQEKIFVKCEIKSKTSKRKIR
pIC50: −log10 of the molar value.
reported-endpoint: pIC50

Below, 2 compounds whose answers are already recorded.
[[record]]
smiles_representation = "Cc1c(C(C)C)c(=O)on1C(=O)N1CCC[C@H](C)C1"
experimental_result = "< 4.30"

[[record]]
smiles_representation = "CN(C(=O)n1nc(-c2ccc(Cl)cc2)nc1SCC(F)(F)F)c1ccccc1"
experimental_result = "< 4.30"


Turning now to a further record.
pIC50 lookup needed for `CSc1nc(-c2ccc(OC(F)(F)F)cc2)nn1C(=O)N(C)c1ccccc1` , thanks.
< 4.30
